Tested on: Spodoptera litura
PROTOCOL NOTES: Insecticidal activity against Spodoptera litura cabbage leaf disk after 4 to 7 days by leaf dipping method
Assay type: functional
RECORDED CONDITIONS: foliar
Provide the reported LC50 of each item.

Could you share what LC50 was measured for `CSCC(C)(C)NC(=O)c1c(I)cccc1C(=O)Nc1ccc(C(F)(C(F)(F)F)C(F)(F)F)cc1C` , tested on Spodoptera litura?
0.03 µg/mL

Please give the result for `Cc1cc(C(F)(F)C(F)(F)F)ccc1NC(=O)c1cccc(I)c1C(=O)NC(C)C` too.
0.3 µg/mL

Repeat with `Cc1cc(OC(F)(F)F)ccc1NC(=O)c1cccc(I)c1C(=O)NC(C)C`
1 µg/mL

Similarly, Cc1cc(C(F)(C(F)(F)F)C(F)(F)F)ccc1NC(=O)c1cccc(I)c1C(=O)NC(C)(C)CS(C)(=O)=O [FLUBENDIAMIDE] ?
0.03 µg/mL

What about `Cc1cc(Cl)ccc1NC(=O)c1ccccc1C(=O)NC(C)C` ?
10 µg/mL

What about `Cc1cc(C(F)(C(F)(F)F)C(F)(F)F)ccc1NC(=O)c1cccc(I)c1C(=O)NC(C)C` ?
0.1 µg/mL

Please do the same for `CSCC(C)(C)NC(=O)c1c(C(=O)Nc2ccc(C(F)(C(F)(F)F)C(F)(F)F)cc2C)cc(Cl)c(Cl)c1I` as well.
> 10 µg/mL

Now the same for `Cc1cc(OC(F)F)ccc1NC(=O)c1cccc(I)c1C(=O)NC(C)C`
1 µg/mL

How about this compound: `Cc1cc(Cl)ccc1NC(=O)c1cccc(Br)c1C(=O)NC(C)C`
10 µg/mL
